Target sequence: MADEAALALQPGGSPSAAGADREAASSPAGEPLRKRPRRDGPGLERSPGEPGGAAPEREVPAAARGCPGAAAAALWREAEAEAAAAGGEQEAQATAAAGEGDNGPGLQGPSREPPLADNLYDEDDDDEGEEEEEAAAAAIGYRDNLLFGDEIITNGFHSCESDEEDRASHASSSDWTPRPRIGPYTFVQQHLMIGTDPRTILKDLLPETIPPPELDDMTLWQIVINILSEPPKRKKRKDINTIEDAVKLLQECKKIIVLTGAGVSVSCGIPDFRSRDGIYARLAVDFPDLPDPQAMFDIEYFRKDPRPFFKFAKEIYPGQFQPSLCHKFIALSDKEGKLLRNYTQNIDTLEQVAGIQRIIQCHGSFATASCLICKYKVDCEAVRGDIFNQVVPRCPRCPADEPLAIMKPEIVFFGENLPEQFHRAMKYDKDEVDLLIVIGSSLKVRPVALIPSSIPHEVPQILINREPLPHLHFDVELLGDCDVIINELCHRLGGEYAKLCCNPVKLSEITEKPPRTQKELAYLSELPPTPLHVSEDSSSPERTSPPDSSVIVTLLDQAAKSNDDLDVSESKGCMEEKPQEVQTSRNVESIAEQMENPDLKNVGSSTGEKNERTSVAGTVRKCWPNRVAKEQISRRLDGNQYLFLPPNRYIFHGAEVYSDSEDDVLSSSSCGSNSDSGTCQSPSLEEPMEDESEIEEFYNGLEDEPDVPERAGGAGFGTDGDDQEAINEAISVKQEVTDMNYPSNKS
reportedMetric: pIC50
Bear in mind: pIC50 is minus log10 of a mol/L concentration; give just that figure.

Incoming: For the compound shown here, CC(C(=O)Nc1ccc(/N=C/c2c(O)ccc3ccccc23)cc1)c1ccccc1 (stereo unspecified) , give the reported pIC50.
Outgoing: 4.39

====

runDescription: Cytotoxicity against human 30PT cells after 72 hrs by celltiter-glo luminescent assay
Assay type: functional
molecules and their reported CC50
Kindly provide the numeric value in µM only, without the unit symbol.

Observe how each entry below is paired with its result.
N#C/C(=C\c1ccc(-c2cc(Cl)ccc2Cl)o1)C(=O)Nc1cccc2ncccc12 : 9.6
CC(CS(=O)(=O)c1ccccc1/N=C/c1c(O)ccc2ccccc12)c1ccccc1 (centres undefined) : 15.3
CC(C(=O)Nc1cccc(/N=C/c2c(O)ccc3ccccc23)c1)c1ccccc1 (centres undefined) [SALERMIDE] : 36.5

Next item in the queue.
Incoming: For the molecule shown here, CC(CSc1cccc(/N=C/c2c(O)ccc3ccccc23)c1)c1ccccc1 (centres undefined) , give the reported CC50.
Outgoing: 15.6

====

studyTarget: NAD-dependent protein deacetylase sirtuin-2 (Homo sapiens)
Sequence (Q8IXJ6 whole entry): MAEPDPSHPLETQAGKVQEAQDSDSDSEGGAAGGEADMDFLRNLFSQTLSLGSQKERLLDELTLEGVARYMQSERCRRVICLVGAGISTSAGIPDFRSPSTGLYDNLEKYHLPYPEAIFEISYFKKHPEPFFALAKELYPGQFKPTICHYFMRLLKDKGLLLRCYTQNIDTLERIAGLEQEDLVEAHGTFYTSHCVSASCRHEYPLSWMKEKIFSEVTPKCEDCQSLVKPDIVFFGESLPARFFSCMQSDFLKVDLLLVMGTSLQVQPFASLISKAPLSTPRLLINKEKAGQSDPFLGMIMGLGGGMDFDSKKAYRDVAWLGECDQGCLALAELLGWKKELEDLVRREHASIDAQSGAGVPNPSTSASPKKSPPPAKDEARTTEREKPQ
reportedMetric: IC50 (µM)
Kindly provide the numeric value in µM only, without the unit symbol.

Incoming: Hello, I am looking for reported IC50 with NAD-dependent protein deacetylase sirtuin-2 (Homo sapiens) for CC(CS(=O)(=O)c1ccccc1/N=C/c1c(O)ccc2ccccc12)c1ccccc1 (stereo unspecified) . Could you help?
Outgoing: 24.2
